# test system: T1, ZFP SBS#378 (synthetic)
# T1 chain: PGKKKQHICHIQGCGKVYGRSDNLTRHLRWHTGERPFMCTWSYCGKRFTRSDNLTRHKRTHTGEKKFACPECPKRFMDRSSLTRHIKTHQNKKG
# procedure text: EMSA
# assay context: tags: MBP fusion
pKd: −log10 of the molar value.
assay readout: pKd

# binder, assay value
measured = [
    ("GCCGAGGAGA (dsDNA) DNA 1: GCCGAGGAGA DNA 2: TCTCCTCGGC", 7.51),
]
